Value source: patent US20230235058A1

binders and their reported MLR (CD4 T cell proliferation) repeat 2
# MEASURED_ON: chimeric BTLA of humanised-BTLA mice (human extracellular region, murine transmembrane and signaling … (human; mouse, UniProt Q7TSA3 184-306, limits assumed)
# Sequence (Q7TSA3 other isoform, or with tags, fused parts or gaps mutant limits assumed): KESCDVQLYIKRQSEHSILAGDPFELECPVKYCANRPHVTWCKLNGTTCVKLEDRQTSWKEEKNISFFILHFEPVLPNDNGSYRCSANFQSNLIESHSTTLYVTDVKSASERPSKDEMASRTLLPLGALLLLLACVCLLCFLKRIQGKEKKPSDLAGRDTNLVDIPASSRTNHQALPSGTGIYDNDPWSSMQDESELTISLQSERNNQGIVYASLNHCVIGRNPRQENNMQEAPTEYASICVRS
# MEASUREMENT_NOTES: cell-based or functional assay; also: test concentration or dose not given here
Write the answer as a number in % inhibition, unit excluded.

Here are 4 binders together with their reported answers.
• 12F11 (antibody, IgG1, V domains shown, mIgG1) VH: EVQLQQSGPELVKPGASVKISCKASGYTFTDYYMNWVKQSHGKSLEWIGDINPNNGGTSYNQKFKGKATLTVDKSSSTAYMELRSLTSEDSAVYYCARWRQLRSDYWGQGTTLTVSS VL: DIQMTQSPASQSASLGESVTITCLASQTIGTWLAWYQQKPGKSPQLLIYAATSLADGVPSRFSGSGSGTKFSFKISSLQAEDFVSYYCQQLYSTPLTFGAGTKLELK = 23
• 15C6 (antibody, IgG1, V domains shown, mIgG1) VH: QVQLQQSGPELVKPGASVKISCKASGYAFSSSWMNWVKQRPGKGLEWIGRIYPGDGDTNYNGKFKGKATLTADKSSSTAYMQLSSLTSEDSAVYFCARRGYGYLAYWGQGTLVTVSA VL: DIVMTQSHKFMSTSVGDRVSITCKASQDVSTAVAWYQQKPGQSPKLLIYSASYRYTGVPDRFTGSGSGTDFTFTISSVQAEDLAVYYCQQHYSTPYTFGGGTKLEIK = 8
• 26B1 (antibody, IgG1, V domains shown, mIgG1) VH: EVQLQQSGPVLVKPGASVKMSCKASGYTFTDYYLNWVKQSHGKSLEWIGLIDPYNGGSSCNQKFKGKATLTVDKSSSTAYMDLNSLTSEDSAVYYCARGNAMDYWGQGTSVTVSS VL: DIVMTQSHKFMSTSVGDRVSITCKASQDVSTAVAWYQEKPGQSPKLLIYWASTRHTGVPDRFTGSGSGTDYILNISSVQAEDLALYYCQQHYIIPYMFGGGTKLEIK = 10
• 4B1 (antibody, IgG1, V domains shown, mIgG1) VH: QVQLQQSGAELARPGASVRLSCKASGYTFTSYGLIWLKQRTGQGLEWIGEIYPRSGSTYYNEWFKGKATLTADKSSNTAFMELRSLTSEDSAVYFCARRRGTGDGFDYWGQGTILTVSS VL: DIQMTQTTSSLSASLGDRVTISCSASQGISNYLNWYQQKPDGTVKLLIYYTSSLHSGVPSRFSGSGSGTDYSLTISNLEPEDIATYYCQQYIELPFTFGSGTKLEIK = 30

Query string: Suppose we examine the binder 8C4 (antibody, IgG1, V domains shown, mIgG1) VH: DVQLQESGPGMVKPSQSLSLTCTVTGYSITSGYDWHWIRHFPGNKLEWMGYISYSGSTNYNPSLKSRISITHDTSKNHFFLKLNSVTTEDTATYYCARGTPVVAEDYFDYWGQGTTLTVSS VL: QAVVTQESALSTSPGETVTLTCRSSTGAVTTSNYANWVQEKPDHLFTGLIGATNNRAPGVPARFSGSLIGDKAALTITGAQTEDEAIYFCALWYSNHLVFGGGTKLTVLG ; what MLR (CD4 T cell proliferation) repeat 2 value has been reported?
Result string: -2
